experiment: Inhibition of soybean 15-LOX by spectrophotometric method; set-up: species or system Glycine max
endpoint name: pIC50
pIC50 is a log-scale quantity: -log10 of the concentration expressed in molar.

Qu. Which pIC50 reading was recorded for the compound "CCCCCC(=O)c1c(O)cc(O)c(C/C=C(\C)CCC=C(C)C)c1O" ?
Ans. 4.99
